- Tested on: M. restricta
- Protocol details: Disc-diffusion assay, additional perfumery materials in DMSO, M. restricta, 4 days
- Format: cell-based, Malassezia restricta
- Conditions used: Malassezia restricta, 96 h; Table 20; 0.5% in DMSO, 4 days; read-out: Inhibition zone diameter (mm) on M. restricta
Tag: Fulfilled if measured zone of inhibition at 0.5 % is not below 8 mm, Not fulfilled if it is.

Record excerpt, results attached:
{"columns": ["Molecule", "Group label"],
 "data": [
  ["CCCCCCCCCC(C)C=O (racemic) [(+/−)-2-methylundecanal]", "Not fulfilled"],
  ["COC(C)(C)C1CC=C(C)CC1 (centres unmarked)", "Not fulfilled"],
  ["CCCCC/C=C\\C=C\\C(=O)OCC [ethyl (2E,4Z)-2,4-decadienoate]", "Not fulfilled"],
  ["CC/C(=C\\C[C@H]1CC=C(C)C1(C)C)CO", "Not fulfilled"],
  ["CCCCC/C=C/CCC=O [(4E)-4-decenal]", "Not fulfilled"],
  ["Cc1ccc(CC=O)cc1 [(4-methylphenyl)acetaldehyde]", "Fulfilled"],
  ["CC1(C)CCC[C@]2(C)[C@H]3CCO[C@]3(C)CC[C@@H]12", "Not fulfilled"],
  ["CCCCCCCCCC/C=C/C=O [(E)-2-tridecenal]", "Fulfilled"]
]}

Please tell me: is the molecule CC(CC=O)CCc1ccccc1 (racemic) [(+/−)-3-methyl-5-phenylpentanal] at or over 8 mm in terms of zone of inhibition at 0.5 %?
Not fulfilled

Please tell me: is the molecule CC(C)=CCC[C@@H](C)CC#N [(−)-(R)-3,7-dimethyl-6-octenenitrile] at or over 8 mm in terms of zone of inhibition at 0.5 %?
Not fulfilled
